Test: Example 11: plasma pharmacokinetics (toxicokinetics) of tozadenant in mice after twice daily oral administration
Type: in vivo, Crl:CD1(ICR) mice
Details: male, Crl:CD1(ICR), mouse, plasma, po, 100 mg/kg/day, Group 1, Male, 100 mg/kg/day (50 mg/kg/dose), oral, dosing at 0, 8 hr; read-out: AUC0-8
parameter: AUC(0-t)
A bare number is not enough; add the unit after it.

For COc1ccc(N2CCOCC2)c2sc(NC(=O)N3CCC(C)(O)CC3)nc12 [SYN-115] , what is its reported AUC(0-t)?
1950 ng·h/mL

###

Assay: Example 11: plasma pharmacokinetics (toxicokinetics) of tozadenant in mice after twice daily oral administration
Format: in vivo, Crl:CD1(ICR) mice
Conditions: male, Crl:CD1(ICR), mouse, plasma, po, 2000 mg/kg/day, Group 4, Male, 2000 mg/kg/day (1000 mg/kg/dose), oral, dosing at 0, 8 hr; read-out: Cmax
parameter: Cmax
Give the figure together with its unit, number first.

Quick one: Cmax for COc1ccc(N2CCOCC2)c2sc(NC(=O)N3CCC(C)(O)CC3)nc12 [SYN-115] ?
5080 ng/mL
